Where do the numbers come from? From patent US4507313A.

Property: Inhibition of 3H-flunitrazepam-binding in vitro IC50; scope: individual compounds
- TARGET SYSTEM: benzodiazepine receptors
- PROTOCOL TEXT: Displacement of 3H-flunitrazepam binding in vitro (rat forebrain membrane suspension)
- MEASUREMENT CONTEXT: 3H-flunitrazepam 1.0 nM, 0° C., 25 mM KH2PO4 pH 7.1, rat forebrain, 40-60 min
Give just the number in ng/mL; leave the unit off.

Record CCc1noc(-c2ncn3c2CN(C)C(=O)c2cc(F)ccc2-3)n1 ; system benzodiazepine receptors; Inhibition of 3H-flunitrazepam-binding in vitro IC50 = 3.5

Record CCOC(=O)c1ncn2c1CN(C)C(=O)c1cc(Cl)ccc1-2 [reference compound] ; system benzodiazepine receptors; Inhibition of 3H-flunitrazepam-binding in vitro IC50 = 7.9

Record CCc1noc(-c2ncn3c2CN(C)C(=O)c2ccccc2-3)n1 ; system benzodiazepine receptors; Inhibition of 3H-flunitrazepam-binding in vitro IC50 = 12
